A collection of molecules and their measured TGI
- System: HOP-92 NSCLC
- PROCEDURE_TEXT: NCI tumour cell line growth inhibition, 48 h

Worked cases, TGI given:
State the recorded TGI for this entry: O=C1C=CC(=O)N1C1CCCCCCCCCCC1 7.72 µM

Bench note: what TGI did CC(=O)O[C@H]1CCC2(C)C(=CCC3C2CCC2(C)/C(=N/OC(=O)c4ccc(N(CCCl)CCCl)cc4)CCC32)C1 (stereo partly specified) show? > 100 µM

For CCOC(=O)Nn1c(C)nnc1CC#N , what is its reported TGI? > 100 µM

Which value of TGI has been reported for COP(=O)(OC)/C(=C/c1c[nH]c2ccccc12)C(=O)O in the records? > 100 µM

Would you kindly share the measured TGI for Nc1cc(-c2ccccc2)nn1-c1nsc2ccccc12 ? > 100 µM

Now consider a different molecule.
Any idea what TGI was measured for O=[N+]([O-])c1ccc2c(c1)Sc1ccccc1N2CCCCCl ? > 100 µM

* * *

- Tested on: HL-60(TB) leukemia
- PROCEDURE_TEXT: NCI tumour cell line growth inhibition, 48 h
Please enter TRUE where TGI is greater than or equal to 20 µM, and FALSE where it is lower.

Known results for compounds:
For this compound, is measured TGI 20 µM or higher? COc1ccc(C(=O)c2cc(OC)c3c(c2)OCO3)cc1O FALSE

Check the entry O=C1/C(=C/c2cc3c(=O)c4ccccc4sc3s2)NC(=S)N1c1ccccc1 : does TGI equal or exceed 20 µM? TRUE

// inclusive: TGI at least 20 µM? input: O=C(COc1ccc(/C=C/C(=O)c2ccc(Cl)cc2)cc1)Nc1c(Cl)cccc1Cl TRUE

Next:
Kindly determine if TGI recorded for O=C(O)c1cccc2cccc(-c3c4ccc(=O)cc-4oc4cc(O)ccc34)c12 is above or exactly 20 µM. TRUE

Is TGI at least 20 µM? Consider COc1cc(NCCCCCN=C(N)N)c2ncccc2c1 FALSE

Say whether Cc1cc(C)c(S(=O)(=O)N2CCN(S(=O)(=O)c3c(C)cc(C)cc3C)OCCCCCO2)c(C)c1 shows TGI of 20 µM or more. TRUE

# bool: TGI of Cn1ncc2[nH]cnc2c1=S >= 20 µM TRUE

Please tell me: is the compound CC(=O)O[C@H]1CC2C(C3CCC(C(C)CCC(=O)O)[C@]31C)[C@H](OC(C)=O)C[C@@H]1CC3(CC[C@]21C)OOC1(CC[C@]2(C)C4C[C@H](OC(C)=O)[C@]5(C)C(C(C)CCC(=O)O)CCC5C4[C@H](OC(C)=O)C[C@@H]2C1)OO3 (stereo partly drawn) at or over 20 µM in terms of TGI? FALSE

Check the entry Cc1ncc([N+](=O)[O-])n1CCNC(=O)CCCn1ccnc1[N+](=O)[O-] : does TGI equal or exceed 20 µM? TRUE

API: above_or_equal(metric=TGI, cutoff=20 µM) for item CCCCN1CCN(c2ccc3nc(-c4ccc5nc(-c6ccc(OC)c(OC)c6)[nH]c5c4)[nH]c3c2)CC1 FALSE

Textbook exercise: given the entry O=S(=O)(Nc1ccccc1)c1ccc(-c2c3nc(c(-c4ccc(S(=O)(=O)Nc5ccccc5)cc4)c4ccc([nH]4)c(-c4ccc(S(=O)(=O)Nc5ccccc5)cc4)c4nc(c(-c5ccc(S(=O)(=O)Nc6ccccc6)cc5)c5ccc2[nH]5)C=C4)C=C3)cc1 , state whether its TGI is greater than or equal to 20 µM. TRUE

Quick check: does C[C@@H]1C[N+]2([O-])[C@H]3C4=CCC[C@@H]4CC[C@H]3[C@@]3(C)OC(=O)CC[C@]34CC[C@H]1[C@@H]42 (stereo partly drawn) have TGI greater than or equal to 20 µM? TRUE

Hello, I need to know if COc1ccccc1/C=C1\Sc2scc(-c3ccc(O)c(O)c3)[n+]2C1=O has measured TGI not below 20 µM. Thanks! FALSE

* * *

Recorded TGI for the following molecules
- Test system: SR leukemia
- PROCEDURE_TEXT: NCI tumour cell line growth inhibition, 48 h
Could you give me the number in µM? Just the number is fine.

Would you kindly share the measured TGI for CCN(CC)Cc1cc(Nc2c3ccccc3nc3c4ccccc4n(C)c23)cc(CN(CC)CC)c1O ? 10.7

Find the recorded TGI belonging to O=C(Nc1ccc(CN2CCOCC2)cc1)c1ccc(-c2cc(Cl)ccc2Cl)o1 and report it. 8.99

* * *

- Tested on: HCT-116 colon
- PROCEDURE_TEXT: NCI tumour cell line growth inhibition, 48 h
READOUT_LABEL: TGI

Looking for the measured TGI of O=c1[nH]c(=O)n(C2CC(O)C(CO)O2)c2nc3cc4ccccc4cc3nc12 (centres undefined) , can you help? > 100 µM

Query: TGI; subject: COc1ccc(C(N)=O)c(OC)c1OCc1ccccc1 > 100 µM

# get_value(readout='TGI', item= Cc1ccc(C(=O)Nc2ccccc2)cc1N=NN(C)C ) > 100 µM

Continuing:
// TGI lookup, key: Cc1cc(S(=O)(=O)n2ccnc2Oc2cccc(Cl)c2)c(SSc2cc(Cl)c(C)cc2S(=O)(=O)n2ccnc2Oc2cccc(Cl)c2)cc1Cl > 60.7 µM

Would you mind telling me what TGI value was observed for COC(=O)[C@H](NC(=O)OC(C)(C)C)[C@H]1COC(C)(C)O1 ? > 100 µM

Which measured TGI value corresponds to COc1cc(/C=C2\C(=O)N(c3cc(Cl)ccc3Cl)C(c3ccccc3)S2(=O)=O)cc(OC)c1OC (centres undefined) ? > 100 µM

Give its TGI value. Item: O=C(Nc1cccc(-n2cc(-c3ccncc3)c(-c3ccc(Cl)c(O)c3)n2)c1)Nc1ccc(Cl)c(C(F)(F)F)c1 3.63 µM

For the molecule shown here, COc1ccc(/C=C2\C(=O)N(C(=O)c3ccc(NC(C)=O)cc3)N=C2C)cc1 , give the reported TGI. > 100 µM

Please report the recorded TGI for CC1(C)OC2C(CO)OC(n3cnc(N)nc3=O)C2O1 (centres undefined) . > 100 µM

* * *

GI50 by entry:
- Tested on: NCI-H522 lung
- PROCEDURE_TEXT: NCI tumour cell line growth inhibition, 48 h
Residues, ends and D or L forms follow the SMILES beside them. *: point of attachment. Boc = CC(C)(C)OC(=O)*

Check out these entries, answers already filled in.
// lookup GI50 for COC(=O)CNC(=O)C(Cc1ccccc1)NC(=O)C(Cc1ccccc1)NC(=O)OC(C)(C)C (stereo not drawn) (Boc-Phe-Phe-Gly-OMe; configuration not given here) 2.35 µg/mL

Fill in: GI50 of CCOc1nc(-c2ccccc2)cc2c(O)c(C(=O)N/N=C/c3ccc(O)cc3O)[nH]c(=O)c12 is ___ 1290 nM

// below: GI50 requested for another molecule
Param item = O=C(O)CNC(=O)C(CS)Cc1ccccc1 (stereo not drawn) ; retrieve measured GI50. > 25000 nM

* * *

- Test system: SNB-75 CNS
- PROCEDURE_TEXT: NCI tumour cell line growth inhibition, 48 h
READOUT_LABEL: TGI

# TGI lookup, item CC1=NN(c2nc(N)nc(C(C#N)C(=O)c3cc4c(cc3Cl)Sc3nccn3S4(=O)=O)n2)C(C)(C)C1 (centres undefined) > 100 µM

What does the record list as TGI for CCc1cccc(C)c1NC(=O)C1=C(C)NC(C)=C(C(=O)Nc2c(C)cccc2CC)C1c1ccc([N+](=O)[O-])cc1 ? > 100 µM

What does the record list as TGI for Cc1cc(S(=O)(=O)n2ccnc2Oc2cccc(Cl)c2)c(SSc2cc(Cl)c(C)cc2S(=O)(=O)n2ccnc2Oc2cccc(Cl)c2)cc1Cl ? > 91.1 µM

# get_value(readout='TGI', item= O=C(NCc1ccc(Cl)cc1Cl)c1ccc(NC2=C(Cl)C(=O)N(Cc3ccccc3)C2=O)cc1 ) 34.2 µM

TGI lookup needed for Cn1ncc2[nH]cnc2c1=S , thanks. > 100 µM

Need TGI of CCCC1C(CC)C(NC)C(C#N)(C#N)C1(C#N)C#N (centres undefined) , thanks. 22.5 µM

So what's the measured TGI for this one? CCOC(=O)N1C/C(=C/c2ccc(F)cc2)C(=O)/C(=C/c2ccc(F)cc2)C1 10.7 µM

I have this compound here, O=C1C2c3[nH]c4ccccc4c3C3CCCC3C2C(=O)N1c1ccccc1 (centres undefined) , and I need its recorded TGI. > 100 µM

***
Consider the compound shown here: COc1cc(NCCCCCN=C(N)N)c2ncccc2c1 What is its recorded TGI? 16.6 µM

Item under review: Nc1cc(-c2ccccc2)nn1-c1nsc2ccccc12 . Reported TGI? 56.9 µM

Form field: reported TGI of COc1ccc(C2[C@H]3C(=O)N(c4ccc(Cc5ccc(N6C(=O)[C@@H]7ON(c8ccccc8)C(c8ccc(OC)cc8)[C@@H]7C6=O)cc5)cc4)C(=O)[C@H]3ON2c2ccccc2)cc1 (some centres undefined) > 100 µM

Given Nc1nc2c(c3ncccc13)C(c1cccc(Br)c1)Cc1ncccc1-2 (centres undefined) , state its recorded TGI. 13.4 µM

Could you share which TGI value was measured for O=C1NC2C(=O)N(Cc3ccccc3)C(=O)C2N1 (centres undefined) ? > 100 µM

The reported measurements were obtained from PubChem BioAssay (NCI).
